- System: L. mali DSM 20444
- method-notes: Well diffusion assay, spectrum of bacteriocin activity
- Assay type: cell-based
- setup-conditions: 50 μl filtered supernatant of E. coli Tuner (DE3) transformants encoding the pediocin PA-1 leader, 7 mm wells, triplicate
No end group written: not given here.
measure: radius of the zone of inhibition (millimeters)

INSERT INTO assay_data (substance, measure, data_value) VALUES
  ('–KYYGNGVTCG-KHSCSVDWGKATTCIINNGAMAWATGGHQGNHKC—– (bicyclic or more) (KYYGNGVTCGKHSCSVDWGKATTCIINNGAMAWATGGHQGNHKC; not fully specified (bridges); cysteine pairing not given here; UniProt P29430 19-62, looked up) [Pediocin PA-1 (PedA), original class IIa bacteriocin of P. acidilactici LMG 2351, used as a control; heterologously expressed, reference compound]', 'radius of the zone of inhibition', 7.67);

###

- Test system: Li. monocytogenes DPC 6894
- method-notes: Well diffusion assay, spectrum of bacteriocin activity
- Type: cell-based
- setup-conditions: 50 μl filtered supernatant of E. coli Tuner (DE3) transformants encoding the pediocin PA-1 leader, 7 mm wells, triplicate
No end group written: not given here.
In this section we review reported radius of the zone of inhibition values for a set of substances.
measure: radius of the zone of inhibition (millimeters)

INSERT INTO results (substance, data_value) VALUES
  ('–KYYGNGVTCG-KHSCSVDWGKATTCIINNGAMAWATGGHQGNHKC—– (bicyclic or more) (KYYGNGVTCGKHSCSVDWGKATTCIINNGAMAWATGGHQGNHKC; not fully specified (bridges); cysteine pairing not given here; UniProt P29430 19-62, looked up) [Pediocin PA-1 (PedA), original class IIa bacteriocin of P. acidilactici LMG 2351, used as a control; heterologously expressed, reference compound]', 5),
  ('–KYYGNGVHCG-KKTCYVDWGQATASIGKIIVNGWTQHGPWAHR———- (disulfide) [Penocin A (PenA), previously characterized class IIa bacteriocin, here encoded by P. pentosaceus DSM 20336, heterologously expressed]', 0.67),
  ('–KYYGNGLYCG-KHSCSVDWGKATTCIINNGAMAWATGGHQGTHKC—— (bicyclic or more) [Pediocin 20336a (Ped20336), novel pediocin-like class IIa bacteriocin encoded by P. pentosaceus DSM 20336, heterologously expressed]', 4.33),
  ('–KYYGNGVSCTKKHGCKVNWGQAFTCSVNRFANFGH–G————-NC— (bicyclic or more) [Hordeiocin (Hrd), novel pediocin-like class IIa bacteriocin encoded by L. hordei DSM 19519, heterologously expressed]', 4),
  ('–KYYGNGVYCG-KHKCRVDWGQAWGCSVNRWGAAVGTGGKATIGHC— (bicyclic or more) [Ruminicin (Rum), novel pediocin-like class IIa bacteriocin encoded by L. ruminis DSM 20403, heterologously expressed]', 2),
  ('–KYYGNGVSCS-KHSCSVDWGKALTCTINNGAMAWTTGGHQGNHKC—- (bicyclic or more) [Rennicin A (RenA), novel pediocin-like class IIa bacteriocin encoded by L. rennini DSM 20253, heterologously expressed]', 2),
  ('–KYYGNGVSCG-KHTCKVNWGQAWNESVNRWGNSWVNGLTGLRQH— (disulfide) [Futcin (Fut), novel pediocin-like class IIa bacteriocin encoded by L. futsaii JCM 17355, heterologously expressed]', 0.83),
  ('SRYYGNGITCG-KHKCTVNWGQAWTCGVNRLANFGH–G————–NC— (bicyclic or more) [Agilicin (Agl), novel pediocin-like class IIa bacteriocin encoded by L. agilis DSM 20509, heterologously expressed]', 4);
